Data origin: the supplement of paper PMC10065799

target: EPHB2 (UniProt P29323); assay: phosphorylation enrichment, bacterial display (enrichment ratio); higher = better substrate or ligand; peptides without Tyr show the background
Sequence (P29323 whole entry, looked up): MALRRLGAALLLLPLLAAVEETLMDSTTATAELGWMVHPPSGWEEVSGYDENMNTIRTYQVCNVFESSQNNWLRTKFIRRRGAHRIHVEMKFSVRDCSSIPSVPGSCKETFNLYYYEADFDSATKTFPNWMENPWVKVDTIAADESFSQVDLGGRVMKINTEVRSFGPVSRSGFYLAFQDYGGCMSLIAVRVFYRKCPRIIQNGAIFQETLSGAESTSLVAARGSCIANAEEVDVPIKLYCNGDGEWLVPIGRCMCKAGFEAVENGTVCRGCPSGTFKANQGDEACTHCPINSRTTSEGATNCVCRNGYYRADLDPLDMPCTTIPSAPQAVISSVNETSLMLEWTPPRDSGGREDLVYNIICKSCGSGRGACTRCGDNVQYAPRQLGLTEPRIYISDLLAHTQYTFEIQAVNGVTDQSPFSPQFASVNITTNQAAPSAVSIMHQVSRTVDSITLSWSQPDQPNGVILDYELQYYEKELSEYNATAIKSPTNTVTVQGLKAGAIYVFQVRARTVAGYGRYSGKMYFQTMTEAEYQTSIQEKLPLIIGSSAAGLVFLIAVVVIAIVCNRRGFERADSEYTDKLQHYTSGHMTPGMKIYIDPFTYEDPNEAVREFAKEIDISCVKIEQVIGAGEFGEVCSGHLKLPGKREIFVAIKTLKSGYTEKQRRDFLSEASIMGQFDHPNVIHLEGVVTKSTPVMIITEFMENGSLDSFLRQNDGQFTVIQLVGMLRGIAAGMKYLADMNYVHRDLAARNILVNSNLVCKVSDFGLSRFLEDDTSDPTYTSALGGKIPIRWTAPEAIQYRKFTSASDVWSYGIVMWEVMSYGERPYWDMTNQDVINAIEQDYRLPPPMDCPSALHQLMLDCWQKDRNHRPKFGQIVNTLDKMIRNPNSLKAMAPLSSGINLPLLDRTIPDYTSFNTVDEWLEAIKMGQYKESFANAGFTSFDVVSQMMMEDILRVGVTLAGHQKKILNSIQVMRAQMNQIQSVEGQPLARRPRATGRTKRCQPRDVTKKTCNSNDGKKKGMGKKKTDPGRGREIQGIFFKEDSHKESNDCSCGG
Measure: phosphorylation enrichment

Sequence data	phosphorylation enrichment
VEDDMYRKTCT [XPA_Y257_L252V]	0.636
ERFAFYRDSPR [FOXE3_Y108]	0.51
GSTLSYFGLAA [P2RX7_Y343]	0.621
EKHGQYLIGHG [EPHB4_Y581_D576E]	0.408
FAKTQYPDIYA [CRX_Y63_V66I]	0.427
RSRQIYDAYIM [GRK3_Y109]	6.14
KEKLCYVAPDF [ACTA1_Y220_L223P]	0.637
ALMGPYHGQVL [HADHA_Y343_L342P]	0.41

Recorded result, IEDPFYGNDSD [ACP1_Y133_YF] , phosphorylation enrichment: 0.65

Recorded result, SKNSKYNAGST [PSEN1_Y315_E318G] , phosphorylation enrichment: 0.654

Recorded result, IEPCIYIPEDD [XPNPEP3_Y455_G453C] , phosphorylation enrichment: 0.603

Recorded result, YNNYGYGSDGF [HNRNPH3_Y161_N163S] , phosphorylation enrichment: 5.3

Recorded result, LDPDSYNVFEN [FOXC1_Y159_M161V] , phosphorylation enrichment: 0.703

Recorded result, VLNDAYENLTR [SYNE2_Y3255] , phosphorylation enrichment: 0.759

Recorded result, FFRRHYPLTTL [TNS4_Y644] , phosphorylation enrichment: 0.497

Recorded result, HRDSSYYWEIE [RAF1_Y340_Q335H] , phosphorylation enrichment: 1.72

Recorded result, IDDNQYAYLKA [HNF4A_Y286_E285Q] , phosphorylation enrichment: 0.667

----------
target: FGFR3 (UniProt P22607); assay: phosphorylation enrichment, bacterial display (enrichment ratio); higher = better substrate or ligand; peptides without Tyr show the background
Sequence (P22607 whole entry, looked up): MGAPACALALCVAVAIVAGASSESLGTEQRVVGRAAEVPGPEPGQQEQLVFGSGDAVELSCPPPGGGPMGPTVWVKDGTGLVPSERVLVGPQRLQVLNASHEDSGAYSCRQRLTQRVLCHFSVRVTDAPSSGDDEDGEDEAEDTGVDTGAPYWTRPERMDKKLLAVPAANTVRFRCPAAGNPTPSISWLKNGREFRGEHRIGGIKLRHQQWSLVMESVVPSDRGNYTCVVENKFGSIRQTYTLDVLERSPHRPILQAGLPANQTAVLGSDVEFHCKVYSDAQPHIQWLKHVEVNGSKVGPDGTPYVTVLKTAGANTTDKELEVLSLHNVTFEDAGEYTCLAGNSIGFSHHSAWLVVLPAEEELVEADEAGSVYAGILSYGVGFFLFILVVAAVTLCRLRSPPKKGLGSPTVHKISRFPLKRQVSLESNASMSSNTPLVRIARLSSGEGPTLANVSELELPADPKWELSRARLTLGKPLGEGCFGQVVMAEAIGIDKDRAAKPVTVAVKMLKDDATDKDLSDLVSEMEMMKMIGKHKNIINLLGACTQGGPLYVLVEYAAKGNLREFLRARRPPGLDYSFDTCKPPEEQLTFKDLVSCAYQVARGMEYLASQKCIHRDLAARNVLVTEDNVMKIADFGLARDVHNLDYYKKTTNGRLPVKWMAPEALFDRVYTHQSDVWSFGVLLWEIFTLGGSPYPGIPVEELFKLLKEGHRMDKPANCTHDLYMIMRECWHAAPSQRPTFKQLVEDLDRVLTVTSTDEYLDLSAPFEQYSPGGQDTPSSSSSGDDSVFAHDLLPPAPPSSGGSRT
Reported phosphorylation enrichment values for the following sequences.
Answer with a bare number; do not write a unit.

Observe how each entry below is paired with its result.
Sequence data	phosphorylation enrichment
PELINYQQHNS [BTK_Y361_H362Q]	0.79
SLGKGYYDGGC [MC4R_Y35_S36Y]	0.68
HVKHNYECLVY [XRCC5_Y416_I412V]	1.12

// switching to the query sequence
Recorded result, RRIHSYRRHLW [VHL_Y112_G114R] , phosphorylation enrichment: 0.718

----------
Reported phosphorylation enrichment values for the following sequences.
target: Hck (UniProt P08631); assay: phosphorylation enrichment, bacterial display (enrichment ratio); higher = better substrate or ligand; peptides without Tyr show the background
Sequence (P08631 whole entry, looked up): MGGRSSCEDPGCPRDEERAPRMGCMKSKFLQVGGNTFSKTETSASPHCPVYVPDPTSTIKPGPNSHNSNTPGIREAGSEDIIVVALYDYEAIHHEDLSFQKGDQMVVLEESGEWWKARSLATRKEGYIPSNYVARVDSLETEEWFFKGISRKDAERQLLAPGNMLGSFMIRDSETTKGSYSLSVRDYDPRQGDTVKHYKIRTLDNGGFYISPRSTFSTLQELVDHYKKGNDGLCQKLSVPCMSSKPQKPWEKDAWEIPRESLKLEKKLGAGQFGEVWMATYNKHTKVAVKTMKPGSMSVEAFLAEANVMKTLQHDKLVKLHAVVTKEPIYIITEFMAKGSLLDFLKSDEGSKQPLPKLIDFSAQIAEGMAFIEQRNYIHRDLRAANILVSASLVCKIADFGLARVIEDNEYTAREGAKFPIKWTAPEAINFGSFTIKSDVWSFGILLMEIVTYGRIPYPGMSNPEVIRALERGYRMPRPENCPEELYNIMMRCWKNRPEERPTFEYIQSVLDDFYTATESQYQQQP
Answer with a bare number; do not write a unit.

Observe how each entry below is paired with its result.
Sequence data	Measured value
GKTFTYRSVFF [ZNF80_Y200]	0.374
SKDQIYPMKLK [RANBP17_Y823]	0.361

Recorded result, PQIVKYRPDCI [LDHB_Y128_S129R] , phosphorylation enrichment: 0.238

Recorded result, PADCRYFAFPQ [GAMT_Y222_YF] , phosphorylation enrichment: 0.733

Recorded result, LPEENYQVLCF [ARHGAP1_Y365_R369C] , phosphorylation enrichment: 4.43

Recorded result, ATQDDYVLEVR [PTPRZ1_Y2179] , phosphorylation enrichment: 0.56

----------
Reported phosphorylation enrichment values for the following sequences.
molecular target: Fes (UniProt P07332); test: phosphorylation enrichment, bacterial display (enrichment ratio); higher = better substrate or ligand; peptides without Tyr show the background
Sequence (P07332 whole entry, looked up): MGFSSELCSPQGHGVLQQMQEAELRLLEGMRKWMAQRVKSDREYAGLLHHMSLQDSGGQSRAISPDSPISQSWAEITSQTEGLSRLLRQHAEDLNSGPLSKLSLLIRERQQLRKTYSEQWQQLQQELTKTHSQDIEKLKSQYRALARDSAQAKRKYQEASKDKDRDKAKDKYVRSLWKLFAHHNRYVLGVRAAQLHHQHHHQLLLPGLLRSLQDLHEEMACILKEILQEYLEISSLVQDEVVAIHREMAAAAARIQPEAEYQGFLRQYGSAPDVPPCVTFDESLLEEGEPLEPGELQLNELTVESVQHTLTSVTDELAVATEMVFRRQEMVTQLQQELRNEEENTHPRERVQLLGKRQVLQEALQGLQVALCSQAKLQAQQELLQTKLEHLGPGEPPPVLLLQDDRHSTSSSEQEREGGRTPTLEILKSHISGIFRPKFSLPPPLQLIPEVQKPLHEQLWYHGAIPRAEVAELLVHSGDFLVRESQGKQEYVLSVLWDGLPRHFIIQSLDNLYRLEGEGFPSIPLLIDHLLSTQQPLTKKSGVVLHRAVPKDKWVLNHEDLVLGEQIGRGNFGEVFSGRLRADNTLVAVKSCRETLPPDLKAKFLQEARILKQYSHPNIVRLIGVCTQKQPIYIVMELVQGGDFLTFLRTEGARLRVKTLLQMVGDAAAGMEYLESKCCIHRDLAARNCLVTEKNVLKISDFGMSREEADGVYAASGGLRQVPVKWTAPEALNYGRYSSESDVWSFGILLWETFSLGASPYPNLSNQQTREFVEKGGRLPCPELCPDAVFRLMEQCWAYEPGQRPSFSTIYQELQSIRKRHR
Answer with a bare number; do not write a unit.

Recorded result, PLDGEYFTHQI [TP53_Y327_L330H] , phosphorylation enrichment: 1.43

Recorded result, AIDVGYRLIDC [AKR1B1_Y40_H42L] , phosphorylation enrichment: 1.2

Recorded result, ILGRFYETSSI [PAX2_Y73_G76S_YF] , phosphorylation enrichment: 0.813

----------
Reported SH2 binding enrichment values for the following sequences.
molecular target: Grb2 SH2 (UniProt P62993); test: SH2 binding enrichment of the phosphorylated peptide, bacterial display (enrichment ratio); higher = better substrate or ligand; peptides without Tyr show the background
Sequence (P62993 whole entry, looked up): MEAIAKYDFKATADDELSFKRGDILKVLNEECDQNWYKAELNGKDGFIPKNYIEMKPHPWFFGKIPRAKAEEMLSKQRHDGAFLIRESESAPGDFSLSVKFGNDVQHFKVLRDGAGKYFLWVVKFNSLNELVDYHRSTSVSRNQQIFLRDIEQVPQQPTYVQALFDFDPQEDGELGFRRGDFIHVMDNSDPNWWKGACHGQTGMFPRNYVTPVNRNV
Answer with a bare number; do not write a unit.

Sequence data	SH2 binding enrichment
PADCRYYTFPQ [GAMT_Y222_A224T]	1.01
DHFNQYEQQKM [CHD7_Y75_YF]	0.752
EEGNPSYSSAR [MCCC2_Y520_Y520S]	0.825

Recorded result, VDESLYKTHPQ [HK1_Y417_G414E] , SH2 binding enrichment: 0.76

----------
Reported phosphorylation enrichment values for the following sequences.
biological target: Hck (UniProt P08631); experiment: phosphorylation enrichment, bacterial display (enrichment ratio); higher = better substrate or ligand; peptides without Tyr show the background

Sequence data	Measured value
ALPGEYIPTVF [RAC1_Y32_F28L]	0.492
KHCEDYVFSFN [DSC1_Y846_C848F_YF]	0.499
KSIEEYLKLVG [RASAL2_Y381]	0.51
GYRPVYSEDEQ [CHST6_Y362]	0.49
IQVDAYFSPIH [ADSL_Y432]	0.684

// switching to the query sequence
Recorded result, SLKEFYGEDAK [ALDH3A1_Y272] , phosphorylation enrichment: 0.501

----------
Reported phosphorylation enrichment values for the following sequences.
biological target: Hck (UniProt P08631); assay: phosphorylation enrichment, bacterial display (enrichment ratio); higher = better substrate or ligand; peptides without Tyr show the background
Answer with a bare number; do not write a unit.

Observe how each entry below is paired with its result.
Sequence data	Target entity	Measured value
FSCLPYGRLAY [SLC52A2_Y305]	Hck (UniProt P08631)	0.894
CTLLPYFSARV [DGKE_Y269_YF]	Hck (UniProt P08631)	0.508
EPTPGYEVGQR [TSC2_Y1788]	Hck (UniProt P08631)	0.566
LFSNAYLNDLA [ALDH1A1_Y119_YF]	Hck (UniProt P08631)	1
YTFNSYYMHWV [IGHV1-46_Y51_T49N]	Hck (UniProt P08631)	2.52

Recorded result, NPQKSYFIRLF [WAS_Y83_YF] , phosphorylation enrichment: 0.5

Recorded result, RPSGRYPVARR [SHANK3_Y1569] , phosphorylation enrichment: 0.767

Recorded result, ADARMCGVLPW [PLP1_Y207_Y207C] , phosphorylation enrichment: 0.488

Recorded result, VNYGAYINDFK [GLB1_Y488] , phosphorylation enrichment: 0.454

Recorded result, YSKDNYKRVTG [PANK2_Y405] , phosphorylation enrichment: 0.344

----------
test system: c-Src; experiment: phosphorylation enrichment, bacterial display (enrichment ratio); higher = better substrate or ligand; peptides without Tyr show the background
Reported phosphorylation enrichment values for the following sequences.
Answer with a bare number; do not write a unit.

Observe how each entry below is paired with its result.
Sequence data	phosphorylation enrichment
ANFAKYGNPNE [BCHE_Y505]	0.461
YYSSEYHYVGG [CTSC_Y345]	4.92
VTQEQYELHCE [CBL_Y368_Y371H]	0.52
LGGSPYPSVPV [FGFR1_Y701_G703S]	0.453
FSKRIYKGMVA [PCDH15_Y931]	0.338

Recorded result, ETDTRYFDEEF [AKT1_Y437] , phosphorylation enrichment: 0.679

Recorded result, KAIMIYVSSFY [ACTN4_Y260_T259I] , phosphorylation enrichment: 0.465

Recorded result, RSSGPYGGGGQ [HNRNPA1_Y341] , phosphorylation enrichment: 0.56

Recorded result, LQRCKYSHMEP [TEX45_Y434] , phosphorylation enrichment: 0.982

Recorded result, FGFPGYQCKHF [TIMP3_Y177_S179C_YF] , phosphorylation enrichment: 0.548

Recorded result, LNAGAYSKVVQ [PPT1_Y172] , phosphorylation enrichment: 0.84

Recorded result, TRSFDYMEGGD [FGF7_Y58_YF] , phosphorylation enrichment: 0.446

Recorded result, RLLRGYDQSAF [HLA-C_Y137_YF] , phosphorylation enrichment: 0.459

----------
molecular target: Hck (UniProt P08631); experiment: phosphorylation enrichment, bacterial display (enrichment ratio); higher = better substrate or ligand; peptides without Tyr show the background
Could you please classify the records by phosphorylation enrichment using these ranges: lower: < 0.5; middle: ≥ 0.5 and < 0.7; upper: ≥ 0.7

Examples with answers:
Sequence data	Class assignment
AEEEIYGIFGA [SRCtide_2014]	upper
FYDANYDGKEY [MAPRE2_Y162]	upper
VLPIDYFFPPQ [AR_Y552_YF]	middle

Please classify: CTTIHYNFTCN [TP53_Y234_M237T_YF]
lower

----------
tested on: c-Abl (mouse); assay: phosphorylation enrichment, bacterial display (enrichment ratio); higher = better substrate or ligand; peptides without Tyr show the background
Measure: phosphorylation enrichment
Answer with a bare number; do not write a unit.

Observe how each entry below is paired with its result.
Sequence data	phosphorylation enrichment
EMFNPCFGLFE [NEDD4L_Y679_Y679C_YF]	1.29
LDVDVYGPSVP [NUBPL_Y109]	1.4
EEGNPSYSSAR [MCCC2_Y520_Y520S]	1.25
LHAAAYRNALA [UQCRC2_Y182]	0.303
RRNTFYASIAK [ACADM_Y353_YF]	0.509
YGSGNYNDFGN [HNRNPA2B1_Y300]	0.923

Recorded result, KAEQLYIGVTV [EFHC2_Y509_E507Q] , phosphorylation enrichment: 0.876

Recorded result, EKLQQYIAPGM [EPHB3_Y600] , phosphorylation enrichment: 0.582
